Data credit: patent US20230017045A1

Tested on: test plant species
Test: Post-emergent herbicidal activity test (greenhouse, foliar spray, visual growth reduction)
Format: in vivo
Conditions: post-emergence, 336 h, ECHCG: barnyardgrass (Echinochloa crus-galli), 140 g ai/ha, 14 days after application, read-out: Visual Growth Reduction (%) 14 Days After Application, ECHCG
From the text: Post-emergent Test: Seeds or nutlets of the desired test plant species were planted in Sun Gro Metro-Mix® 360 planting mixture, which typically has a pH of 6.0 to 6.8 and an organic matter content of about 30 percent, in plastic pots with a surface area of 64 square centimeters. In some aspects, to ensure good germination and healthy plants, a fungicide treatment and/or other chemical or physical treatment was applied. […]
Provide the reported pest or weed control at 140 g/ha of each item.

// for each molecule below, give its pest or weed control at 140 g/ha
1. COC(=O)c1nc(-c2ccc(C(F)(F)F)c(N)c2)ccc1Cl
2. COC(=O)c1nc(-c2ccc3c(c2)C(F)(F)OC(F)(F)O3)c(Cl)cc1Cl
3. COC(=O)c1nc(-c2ccc(C(F)(F)F)cc2F)c(Cl)cc1Cl
4. COC(=O)c1nc(-c2cc(Cl)c(C)cc2F)ccc1Cl
5. COC(=O)c1nc(-c2ccc(C(F)(F)F)cc2Cl)c(Cl)cc1Cl
6. COC(=O)c1nc(-c2ccc(OC)cc2Cl)ccc1Cl
7. COC(=O)c1cc(Cl)cc(-c2ccc(C(F)(F)F)cc2Cl)n1

Solution:
1. 0 to 29%
2. 0 to 29%
3. 0 to 29%
4. 0 to 29%
5. 0 to 29%
6. 0 to 29%
7. 0 to 29%

// for each molecule below, give its pest or weed control at 140 g/ha
1. COC(=O)c1nc(-c2cc3ncsc3cc2F)c(F)cc1Cl
2. O=C(O)c1nc(-c2cccc3c2OC(F)(F)O3)ccc1Cl
3. COC(=O)c1nc(-c2c(Cl)cc(C(F)(F)F)cc2[S+](C)[O-])ccc1Cl (centres unmarked)
4. COC(=O)c1nc(-c2ccc(C3(C#N)CC3)cc2Cl)c(F)cc1Cl

Solution:
1. 0 to 29%
2. 0 to 29%
3. 0 to 29%
4. 30 to 44%

###

Provide the reported pest or weed control at 140 g/ha of each item.
Tested on: test plant species
Assay: Post-emergent herbicidal activity test (greenhouse, foliar spray, visual growth reduction)
Assay type: in vivo
Conditions: post-emergence, 336 h, canada thistle (Cirsium arvense), 14 Days After Application, 140 g ai/ha, read-out: Visual Growth Reduction (%) CIRAR

{"columns": ["SMILES REPRESENTATION", "TARGET OF ASSAY", "pest or weed control at 140 g/ha"],
 "data": [
  ["COC(=O)c1nc(-c2ccccc2)c(F)cc1Cl", "test plant species", "0 to 29%"]
]}

// for each compound below, give its pest or weed control at 140 g/ha
1. COC(=O)c1nc(-c2ccc(Cl)c(F)c2C)ccc1Cl
2. COC(=O)c1nc(-c2c(Cl)cc(C(F)(F)F)cc2[N+](=O)[O-])ccc1Cl
3. COC(=O)c1nc(-c2ccc3c(c2)C(F)(F)OC(F)(F)O3)c(Cl)cc1Cl
4. CCCCOC(=O)c1nc(-c2ccc(Cl)c(OC)c2F)ccc1Cl

Solution:
1: 60 to 74%; 2: 30 to 44%; 3: 0 to 29%; 4: 30 to 44%
